# study target: T1, human LTβR extracellular domain fused with an Fc fragment at the C-terminus (human, UniProt P36941 31-227)
# T1 construct: extracellular domain; Bought; also called hLTβR; not shown: Fc fragment at the C-terminus
# T1 sequence (P36941 31-227): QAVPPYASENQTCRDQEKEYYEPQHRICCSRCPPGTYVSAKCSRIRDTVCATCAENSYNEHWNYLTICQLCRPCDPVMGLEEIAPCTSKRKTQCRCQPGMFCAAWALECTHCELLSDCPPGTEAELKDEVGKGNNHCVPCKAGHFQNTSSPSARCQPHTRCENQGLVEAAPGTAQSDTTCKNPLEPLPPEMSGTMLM
# protocol: phage ELISA
measurement label: binding result

Look up binding result for this binder: LIGHT-54 (ligand, Printed mutations: Q117E, L220S, L227T; Soluble protein carries an N-terminal His tag) DGPAGSWEQLIQERRSHEVNPAAHLTGANSSLTGSGGPLLWETELGLAFLRGLSYHDGALVVTKAGYYYIYSKVQLGGVGCPLGLASTITHGLYKRTPRYPEELELLVSQQSPCGRATSSSRVWWDSSFLGGVVHLEAGEKVVVRVSDERLVRTRDGTRSYFGAFMV
binds

Look up binding result for this binder: LIGHT-77 (ligand, Printed mutations: Q117E, S160G, T161P, L220S, L227T; Soluble protein carries an N-terminal His tag) DGPAGSWEQLIQERRSHEVNPAAHLTGANSSLTGSGGPLLWETELGLAFLRGLSYHDGALVVTKAGYYYIYSKVQLGGVGCPLGLAGPITHGLYKRTPRYPEELELLVSQQSPCGRATSSSRVWWDSSFLGGVVHLEAGEKVVVRVSDERLVRTRDGTRSYFGAFMV
binds

Look up binding result for this binder: LIGHT-62 (ligand, Printed mutations: S160G, T161G, L220T; Soluble protein carries an N-terminal His tag) DGPAGSWEQLIQERRSHEVNPAAHLTGANSSLTGSGGPLLWETQLGLAFLRGLSYHDGALVVTKAGYYYIYSKVQLGGVGCPLGLAGGITHGLYKRTPRYPEELELLVSQQSPCGRATSSSRVWWDSSFLGGVVHLEAGEKVVVRVTDERLVRLRDGTRSYFGAFMV
binds
